- target: Cholecystokinin receptor type A (Homo sapiens)
- Sequence (P32238 whole entry): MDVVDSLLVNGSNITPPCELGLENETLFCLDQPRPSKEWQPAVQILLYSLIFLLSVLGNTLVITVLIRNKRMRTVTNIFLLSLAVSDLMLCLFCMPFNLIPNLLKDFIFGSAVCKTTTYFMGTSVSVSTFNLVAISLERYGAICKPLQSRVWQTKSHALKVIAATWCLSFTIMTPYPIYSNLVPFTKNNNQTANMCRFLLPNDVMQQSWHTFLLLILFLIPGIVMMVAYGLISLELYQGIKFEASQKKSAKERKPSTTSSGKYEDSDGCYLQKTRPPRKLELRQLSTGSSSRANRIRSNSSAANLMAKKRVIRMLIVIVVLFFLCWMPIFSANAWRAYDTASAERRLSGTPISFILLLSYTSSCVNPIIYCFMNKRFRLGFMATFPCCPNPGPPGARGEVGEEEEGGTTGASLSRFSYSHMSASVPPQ
- experimental-details: Compound was tested for its binding affinity towards Cholecystokinin type A receptor in pancreatic membranes
Starred links: 1 amine or outer side, 2 acyl side, 3 side chain; linkers in the order of their positions; H or OH if unused. Non-standard residues stand in square brackets, D forms with d. Residues, ends and D or L forms follow the SMILES beside them. X1 = CCCC1C[C@@H](C(=O)[*:2])N([*:1])C1; Nle = CCCC[C@H](N)C(=O)O
recorded-metric: IC50 (nM)
// return numeric value only (unit: nM, not printed)

Query: Bench note: what IC50 did CCCC[C@@H](C(=O)N[C@@H](CC(=O)OCc1ccccc1)[C@@H](Cc1ccccc1)C(N)=O)n1nnnc1[C@H](Cc1c[nH]c2ccccc12)NC(=O)OC(C)(C)C (mixture of isomers) show?
Response: 36.7

Query: Query (molecule): CCCC[C@H](NC(=O)[C@H](Cc1c[nH]c2ccccc12)NC(=O)CN)C(=O)N[C@@H](CC(=O)O)C(=O)N[C@@H](Cc1ccccc1)C(N)=O (H-GW[Nle]DF-NH2) ; field requested: IC50
Response: 2180

Query: What measured IC50 goes with CCCC[C@@H](C(=O)N[C@@H](CC(=O)OCc1ccccc1)[C@@H](Cc1ccccc1)C(N)=O)n1nnnc1[C@H](Cc1c[nH]c2ccccc12)NC(=O)CNC(=O)OC(C)(C)C (mixture of isomers) ?
Response: 364

Query: Field request: IC50 | item: CCCC1C[C@@H](C(=O)N[C@@H](CC(=O)O)C(=O)N[C@@H](Cc2ccccc2)C(N)=O)N(C(=O)[C@H](Cc2c[nH]c3ccccc23)NC(=O)CN)C1 (some centres not stated) (H-GW[X1]DF-NH2)
Response: 2700

---

- target: Gastrin/cholecystokinin type B receptor (Homo sapiens, UniProt P32239)
- Sequence (P32239 whole entry): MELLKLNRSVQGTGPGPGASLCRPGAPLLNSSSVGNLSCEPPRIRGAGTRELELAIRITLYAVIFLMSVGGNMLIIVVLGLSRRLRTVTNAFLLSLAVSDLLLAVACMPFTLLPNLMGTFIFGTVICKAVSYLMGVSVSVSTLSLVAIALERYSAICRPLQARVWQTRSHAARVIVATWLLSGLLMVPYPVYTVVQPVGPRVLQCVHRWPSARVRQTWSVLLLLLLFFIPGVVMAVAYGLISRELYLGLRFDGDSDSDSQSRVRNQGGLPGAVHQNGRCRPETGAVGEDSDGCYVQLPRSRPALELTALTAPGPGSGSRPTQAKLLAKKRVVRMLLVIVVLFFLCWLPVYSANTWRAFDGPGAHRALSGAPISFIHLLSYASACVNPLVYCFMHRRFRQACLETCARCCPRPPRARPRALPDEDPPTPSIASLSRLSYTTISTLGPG
- experimental-details: Compound was tested for its binding affinity towards Cholecystokinin type B receptor in cortical membranes (CNS)
Starred links: 1 amine or outer side, 2 acyl side, 3 side chain; linkers in the order of their positions; H or OH if unused. Non-standard residues stand in square brackets, D forms with d. Residues, ends and D or L forms follow the SMILES beside them. X1 = CCCC1C[C@@H](C(=O)[*:2])N([*:1])C1; Nle = CCCC[C@H](N)C(=O)O
recorded-metric: IC50 (µM)
Give the value, in units of µM, as a plain number.

Query: # get_value(readout= IC50, system= Gastrin/cholecystokinin type B receptor (Homo sapiens, UniProt P32239)) for CCCC1C[C@@H](C(=O)N[C@@H](CC(=O)O)C(=O)N[C@@H](Cc2ccccc2)C(N)=O)N(C(=O)[C@H](Cc2c[nH]c3ccccc23)NC(=O)CN)C1 (stereo partly specified) (H-GW[X1]DF-NH2)
Response: 0.0019

Query: Give IC50 (Gastrin/cholecystokinin type B receptor (Homo sapiens, UniProt P32239)) of the following compound: `CCCC[C@@H](C(=O)N[C@@H](CC(=O)O)[C@@H](Cc1ccccc1)C(N)=O)n1nnnc1[C@H](Cc1c[nH]c2ccccc12)NC(=O)CN`
Response: 4.53

Query: I'm curious: which IC50 was measured for CCCC[C@@H](C(=O)N[C@@H](CC(=O)OCc1ccccc1)[C@@H](Cc1ccccc1)C(N)=O)n1nnnc1[C@H](Cc1c[nH]c2ccccc12)NC(=O)CNC(=O)OC(C)(C)C (mixture of isomers) tested on Gastrin/cholecystokinin type B receptor (Homo sapiens, UniProt P32239)?
Response: 4.25

Query: Param readout= IC50; system= Gastrin/cholecystokinin type B receptor (Homo sapiens, UniProt P32239); entry= CCCC[C@H](NC(=O)[C@H](Cc1c[nH]c2ccccc12)NC(=O)CN)C(=O)N[C@@H](CC(=O)O)C(=O)N[C@@H](Cc1ccccc1)C(N)=O (H-GW[Nle]DF-NH2) ; returns value.
Response: 0.169

Query: Value wanted: IC50 (Gastrin/cholecystokinin type B receptor (Homo sapiens, UniProt P32239)) of entry CCCC[C@@H](C(=O)N[C@@H](CC(=O)OCc1ccccc1)[C@@H](Cc1ccccc1)C(N)=O)n1nnnc1[C@H](Cc1c[nH]c2ccccc12)NC(=O)OC(C)(C)C (mixture of isomers)
Response: 1.88
